Where do these numbers come from? They come from patent US9562053B2.

molecular target: long form of human GPR120 (Homo sapiens, UniProt Q5NUL3); assay: Human GPR120 DiscoveRx PathHunter Beta-Arrestin Assay, Procedure β-arrestin A (3000 cells per well); conditions: read-out: GPR120 B-arrestin A EC50
Sequence (Q5NUL3 1-377 isoform Q5NUL3-1): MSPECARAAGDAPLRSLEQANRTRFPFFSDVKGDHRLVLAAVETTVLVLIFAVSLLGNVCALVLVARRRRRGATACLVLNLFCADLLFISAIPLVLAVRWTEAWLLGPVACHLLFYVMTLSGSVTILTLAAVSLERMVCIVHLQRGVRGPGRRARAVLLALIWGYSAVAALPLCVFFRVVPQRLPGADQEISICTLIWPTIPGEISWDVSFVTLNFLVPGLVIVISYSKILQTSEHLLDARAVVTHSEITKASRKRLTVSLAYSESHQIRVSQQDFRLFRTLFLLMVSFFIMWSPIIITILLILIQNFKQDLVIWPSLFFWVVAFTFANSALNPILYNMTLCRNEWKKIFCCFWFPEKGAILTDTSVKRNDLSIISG
measured-quantity: EC50 (nM)

[
  {
    "compound": "CCc1cc2cc(F)cc(COc3ccc(CCC(=O)O)c(C)c3C)c2o1 [Compound 3]",
    "target-or-system": "long form of human GPR120 (Homo sapiens, UniProt Q5NUL3)",
    "sign-qualifier": "=",
    "numeric-value": 327
  },
  {
    "compound": "CCc1cc2cc(Cl)c(OCC(F)(F)F)c(COc3ccc(CCC(=O)O)c(C)c3C)c2o1 [Compound 64]",
    "target-or-system": "long form of human GPR120 (Homo sapiens, UniProt Q5NUL3)",
    "sign-qualifier": "=",
    "numeric-value": 271
  },
  {
    "compound": "Cc1cc2c(F)c(OC(F)(F)F)c(F)c(COc3ccc(CCC(=O)O)c(F)c3F)c2o1 [Compound 75]",
    "target-or-system": "long form of human GPR120 (Homo sapiens, UniProt Q5NUL3)",
    "sign-qualifier": "=",
    "numeric-value": 394
  },
  {
    "compound": "CCc1cc2cc(Cl)c(OC(F)F)c(COc3ccc(CCC(=O)O)c(C)c3C)c2o1 [Compound 69]",
    "target-or-system": "long form of human GPR120 (Homo sapiens, UniProt Q5NUL3)",
    "sign-qualifier": "=",
    "numeric-value": 223
  },
  {
    "compound": "Cc1cc2cc(OC(F)(F)F)cc(COc3ccc(CCC(=O)O)c4c3CCC4)c2o1 [Compound 55]",
    "target-or-system": "long form of human GPR120 (Homo sapiens, UniProt Q5NUL3)",
    "sign-qualifier": "=",
    "numeric-value": 73
  },
  {
    "compound": "CCCc1cc2cc(OC(F)(F)F)cc(COc3ccc(CCC(=O)O)c(C)c3C)c2o1 [Compound 35]",
    "target-or-system": "long form of human GPR120 (Homo sapiens, UniProt Q5NUL3)",
    "sign-qualifier": "=",
    "numeric-value": 190
  },
  {
    "compound": "CCc1cc2cc(Cl)c(OCCOC)c(COc3ccc(CCC(=O)O)c(C)c3C)c2o1 [Compound 63]",
    "target-or-system": "long form of human GPR120 (Homo sapiens, UniProt Q5NUL3)",
    "sign-qualifier": "=",
    "numeric-value": 231
  },
  {
    "compound": "CCOc1c(Cl)cc2cc(CC)oc2c1COc1ccc(CCC(=O)O)c(C)c1C [Compound 62]",
    "target-or-system": "long form of human GPR120 (Homo sapiens, UniProt Q5NUL3)",
    "sign-qualifier": "=",
    "numeric-value": 274
  },
  {
    "compound": "Cc1c(CCC(=O)O)ccc(OCc2cc(Cl)cc3cc(C=CF)oc23)c1C (mixture of isomers) [Compound 88]",
    "target-or-system": "long form of human GPR120 (Homo sapiens, UniProt Q5NUL3)",
    "sign-qualifier": "=",
    "numeric-value": 594
  },
  {
    "compound": "CCCc1cc2cc(F)cc(COc3ccc(CCC(=O)O)c(C)c3C)c2o1 [Compound 13]",
    "target-or-system": "long form of human GPR120 (Homo sapiens, UniProt Q5NUL3)",
    "sign-qualifier": "=",
    "numeric-value": 302
  },
  {
    "compound": "CCc1cc2cc(Cl)c(C)c(COc3ccc(CCC(=O)O)c(C)c3C)c2o1 [Compound 40]",
    "target-or-system": "long form of human GPR120 (Homo sapiens, UniProt Q5NUL3)",
    "sign-qualifier": "=",
    "numeric-value": 107
  },
  {
    "compound": "Cc1cc2cc(Cl)cc(COc3ccc(CCC(=O)O)c(C)c3C)c2o1 [Compound 78]",
    "target-or-system": "long form of human GPR120 (Homo sapiens, UniProt Q5NUL3)",
    "sign-qualifier": "=",
    "numeric-value": 121
  },
  {
    "compound": "Cc1c(CCC(=O)O)ccc(OCc2cc(OC(F)(F)F)cc3cc(CC(F)F)oc23)c1C [Compound 96]",
    "target-or-system": "long form of human GPR120 (Homo sapiens, UniProt Q5NUL3)",
    "sign-qualifier": "=",
    "numeric-value": 148
  },
  {
    "compound": "CCc1cc2cc(Cl)c(OC(C)C)c(COc3ccc(CCC(=O)O)c(C)c3C)c2o1 [Compound 65]",
    "target-or-system": "long form of human GPR120 (Homo sapiens, UniProt Q5NUL3)",
    "sign-qualifier": "=",
    "numeric-value": 240
  },
  {
    "compound": "CCCc1cc2cc(I)cc(COc3ccc(CCC(=O)O)c(C)c3C)c2o1 [Compound 47]",
    "target-or-system": "long form of human GPR120 (Homo sapiens, UniProt Q5NUL3)",
    "sign-qualifier": "=",
    "numeric-value": 197
  },
  {
    "compound": "Cc1oc2cccc(COc3ccc(CCC(=O)O)c(F)c3F)c2c1C [Compound 1]",
    "target-or-system": "long form of human GPR120 (Homo sapiens, UniProt Q5NUL3)",
    "sign-qualifier": ">",
    "numeric-value": 20000
  },
  {
    "compound": "CCc1cc2cc(OC(F)F)cc(COc3ccc(CCC(=O)O)c(C)c3C)c2o1 [Compound 57]",
    "target-or-system": "long form of human GPR120 (Homo sapiens, UniProt Q5NUL3)",
    "sign-qualifier": "=",
    "numeric-value": 77
  },
  {
    "compound": "CCCc1cc(OCc2cc(OC(F)(F)F)cc3cc(CC)oc23)c(F)cc1CCC(=O)O [Compound 50]",
    "target-or-system": "long form of human GPR120 (Homo sapiens, UniProt Q5NUL3)",
    "sign-qualifier": "=",
    "numeric-value": 496
  },
  {
    "compound": "Cc1cc2c(COc3ccc(CCC(=O)O)c(C)c3C)cc(Cl)cc2o1 [Compound 81]",
    "target-or-system": "long form of human GPR120 (Homo sapiens, UniProt Q5NUL3)",
    "sign-qualifier": "=",
    "numeric-value": 817
  },
  {
    "compound": "Cc1cc2cc3c(c(COc4ccc(CCC(=O)O)c(C)c4C)c2o1)OCCO3 [Compound 90]",
    "target-or-system": "long form of human GPR120 (Homo sapiens, UniProt Q5NUL3)",
    "sign-qualifier": "=",
    "numeric-value": 532
  },
  {
    "compound": "CC#Cc1cc(COc2ccc(CCC(=O)O)c(C)c2C)c2oc(CCC)cc2c1 [Compound 58]",
    "target-or-system": "long form of human GPR120 (Homo sapiens, UniProt Q5NUL3)",
    "sign-qualifier": "=",
    "numeric-value": 410
  },
  {
    "compound": "CCc1cc2cc(F)cc(COc3c(F)cc(CCC(=O)O)cc3F)c2o1 [Compound 17]",
    "target-or-system": "long form of human GPR120 (Homo sapiens, UniProt Q5NUL3)",
    "sign-qualifier": "=",
    "numeric-value": 455
  },
  {
    "compound": "Cc1cc2cc3c(c(COc4ccc(CCC(=O)O)c(C)c4C)c2o1)OC(F)(F)O3 [Compound 89]",
    "target-or-system": "long form of human GPR120 (Homo sapiens, UniProt Q5NUL3)",
    "sign-qualifier": "=",
    "numeric-value": 119
  },
  {
    "compound": "CCc1cc2cc(Cl)c(CC)c(COc3ccc(CCC(=O)O)c(C)c3C)c2o1 [Compound 61]",
    "target-or-system": "long form of human GPR120 (Homo sapiens, UniProt Q5NUL3)",
    "sign-qualifier": "=",
    "numeric-value": 190
  },
  {
    "compound": "Cc1cc2cc(OC(F)(F)F)cc(COc3ccc(CCC(=O)O)c(C)c3C)c2o1 [Compound 36]",
    "target-or-system": "long form of human GPR120 (Homo sapiens, UniProt Q5NUL3)",
    "sign-qualifier": "=",
    "numeric-value": 85
  },
  {
    "compound": "Cc1oc2cc(Cl)cc(COc3ccc(CCC(=O)O)c(C)c3C)c2c1C [Compound 80]",
    "target-or-system": "long form of human GPR120 (Homo sapiens, UniProt Q5NUL3)",
    "sign-qualifier": "=",
    "numeric-value": 249
  },
  {
    "compound": "Cc1cc2cc(OC(F)F)cc(COc3ccc(CCC(=O)O)c(C)c3C)c2o1 [Compound 76]",
    "target-or-system": "long form of human GPR120 (Homo sapiens, UniProt Q5NUL3)",
    "sign-qualifier": "=",
    "numeric-value": 144
  },
  {
    "compound": "CCc1cc2cc(Cl)c(OCC(C)C)c(COc3ccc(CCC(=O)O)c(C)c3C)c2o1 [Compound 67]",
    "target-or-system": "long form of human GPR120 (Homo sapiens, UniProt Q5NUL3)",
    "sign-qualifier": "=",
    "numeric-value": 221
  },
  {
    "compound": "COCc1cc2cc(F)cc(COc3ccc(CCC(=O)O)c(C)c3C)c2o1 [Compound 21]",
    "target-or-system": "long form of human GPR120 (Homo sapiens, UniProt Q5NUL3)",
    "sign-qualifier": "=",
    "numeric-value": 458
  },
  {
    "compound": "CCCc1cc2cc(OC(F)F)cc(COc3ccc(CCC(=O)O)c(C)c3C)c2o1 [Compound 77]",
    "target-or-system": "long form of human GPR120 (Homo sapiens, UniProt Q5NUL3)",
    "sign-qualifier": "=",
    "numeric-value": 176
  }
]
